Reported pIC50 is given for each of the following compounds.
Molecular target: Recombinant human cathepsin A (Homo sapiens, UniProt P10619)
Construct: Recombinant human cathepsin A (residues 29-480, with a C-terminal 10-His tag); 10-His (C)
Sequence (P10619 29-326 limits assumed): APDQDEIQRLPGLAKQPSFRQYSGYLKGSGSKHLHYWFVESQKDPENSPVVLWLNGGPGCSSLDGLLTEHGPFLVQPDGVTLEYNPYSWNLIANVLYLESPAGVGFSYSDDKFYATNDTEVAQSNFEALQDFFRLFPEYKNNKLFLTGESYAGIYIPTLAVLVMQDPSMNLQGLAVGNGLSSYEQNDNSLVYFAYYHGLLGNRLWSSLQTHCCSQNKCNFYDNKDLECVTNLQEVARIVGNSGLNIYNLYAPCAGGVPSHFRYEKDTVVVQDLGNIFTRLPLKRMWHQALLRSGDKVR
Sequence (P10619 327-480 limits assumed): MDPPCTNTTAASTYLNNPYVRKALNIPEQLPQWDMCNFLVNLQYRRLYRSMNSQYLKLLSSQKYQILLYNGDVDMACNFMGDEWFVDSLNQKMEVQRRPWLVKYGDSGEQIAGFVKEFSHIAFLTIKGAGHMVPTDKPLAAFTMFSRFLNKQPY
Test: Cathepsin A inhibitory activity
Conditions: activated recombinant human cathepsin A 833 ng/ml, Bodipy FL-labeled bradykinin 2 μM, pH 5.5, 15 min room temperature
pIC50 here: minus log base 10 of the concentration, concentration in moles per litre.

# compound, pIC50
measured = [
    ("Cc1ccc(C(=O)Nc2cc(C(=O)N[C@@H](CC(=O)O)c3ccccc3C)nn2-c2ccccc2)o1", 7.20),
    ("Cc1ccccc1[C@H](CC(=O)O)NC(=O)c1cc(NCC(O)C(C)(C)C)n(-c2ccccc2)n1 (stereo partly drawn)", 7.92),
    ("CC(C)C[C@@H](CC(=O)O)NC(=O)c1cc(NC(=O)c2ccccc2)n(-c2ccccc2)n1", 4.66),
    ("Cc1ccccc1[C@H](CC(=O)O)NC(=O)c1cc(N2CCCCC2=O)n(-c2ccccc2F)n1", 7.34),
    ("O=C(O)C[C@H](NC(=O)c1cc(NC(=O)c2ccccc2)n(-c2ccccc2)n1)c1ccc(Cl)cc1Cl", 6.97),
    ("O=C(O)C[C@H](NC(=O)c1cc(NC(=O)c2ccccc2)n(-c2ccccc2)n1)c1ccccc1C(F)(F)F", 6.41),
    ("Cc1ccccc1[C@H](CC(=O)O)NC(=O)c1cc(NC[C@@H](O)C(C)(C)C)n(-c2ccccc2)n1 (single isomer, unassigned)", 7.95),
    ("O=C(O)CC(NC(=O)c1cc2[nH]c3ccccc3n2n1)c1ccccc1F (stereo not drawn)", 5.76),
]

Item "Cc1ccccc1[C@H](CC(=O)O)NC(=O)c1nn(-c2ccccc2F)c(N)c1C#N" ; assay system Recombinant human cathepsin A (Homo sapiens, UniProt P10619); pIC50 reported as 7.73

Item Cc1ccccc1[C@H](CC(=O)O)NC(=O)c1cc(N(C)CC(O)C(C)(C)C)n(-c2ccccc2)n1 (stereo partly drawn) ; assay system Recombinant human cathepsin A (Homo sapiens, UniProt P10619); pIC50 reported as 7.11

Item "Cc1ccccc1[C@H](CC(=O)O)NC(=O)c1cc(N2CCCC2)n(-c2ccccc2F)n1" ; assay system Recombinant human cathepsin A (Homo sapiens, UniProt P10619); pIC50 reported as 8.08

Item "Cc1ccccc1[C@H](CC(=O)O)NC(=O)c1cc(NC(=O)Nc2ccccc2)n(-c2ccccc2)n1" ; assay system Recombinant human cathepsin A (Homo sapiens, UniProt P10619); pIC50 reported as 7.85

Item O=C(O)CC(NC(=O)c1cc2[nH]c3ccccc3n2n1)c1ccc(F)c(F)c1 (stereo not drawn) ; assay system Recombinant human cathepsin A (Homo sapiens, UniProt P10619); pIC50 reported as 5.48

Item Nc1cc(C(=O)NC(CC(=O)O)c2ccc(-c3ccccn3)cc2)nn1-c1ccccc1F (stereo not drawn) ; assay system Recombinant human cathepsin A (Homo sapiens, UniProt P10619); pIC50 reported as 7.69

Item "Cc1ccccc1[C@H](CC(=O)O)NC(=O)c1cc(NC(=O)C(C)(C)C)n(-c2ccccc2)n1" ; assay system Recombinant human cathepsin A (Homo sapiens, UniProt P10619); pIC50 reported as 7.54

====

Reported pIC50 is given for each of the following compounds.
Target: Recombinant human cathepsin A (Homo sapiens, UniProt P10619)
Construct: Recombinant human cathepsin A (residues 29-480, with a C-terminal 10-His tag); 10-His (C)
Experiment: Cathepsin A inhibitory activity
Settings: activated recombinant human cathepsin A 833 ng/ml, Bodipy FL-labeled bradykinin 2 μM, pH 5.5, 15 min room temperature
pIC50 here: minus log base 10 of the concentration, concentration in moles per litre.

Please review the following examples before continuing.
# compound, study_target, endpoint_value
measured = [
    ("CC(C)(CC(=O)O)NC(=O)c1cc2[nH]c3ccccc3n2n1 [Example 43]", "Recombinant human cathepsin A (Homo sapiens, UniProt P10619)", 5.29),
    ("Nc1cc(C(=O)N[C@@H](CC(=O)O)c2cccc(Cl)c2Cl)nn1-c1ccccc1F [Example 8]", "Recombinant human cathepsin A (Homo sapiens, UniProt P10619)", 7.63),
    ("Cc1ccccc1[C@H](CC(=O)O)NC(=O)c1cc(N2CCCS2(=O)=O)n(-c2ccccc2)n1 [Example 16]", "Recombinant human cathepsin A (Homo sapiens, UniProt P10619)", 7.75),
    ("Cc1ccccc1[C@H](CC(=O)O)NC(=O)c1cc(NCC(C)(O)C(C)(C)C)n(-c2ccccc2)n1 (some centres unmarked) [Example 58]", "Recombinant human cathepsin A (Homo sapiens, UniProt P10619)", 7.41),
    ("Cc1ccccc1[C@H](CC(=O)O)NC(=O)c1cc(NCC(=O)C(C)(C)C)n(-c2ccccc2)n1 [Example 56]", "Recombinant human cathepsin A (Homo sapiens, UniProt P10619)", 7.79),
    ("O=C(O)C[C@H](NC(=O)c1cc(NC(=O)c2ccccc2)n(-c2ccccc2)n1)c1ccccc1F [Example 83]", "Recombinant human cathepsin A (Homo sapiens, UniProt P10619)", 6.83),
]

Reported pIC50 for O=C(O)CC1(NC(=O)c2cc(NC(=O)c3ccccc3)n(-c3ccccc3)n2)CCCC1 [Example 77] was 7.13

Reported pIC50 for Cc1ccc(C(=O)Nc2cc(C(=O)N[C@@H](CC(=O)O)c3ccc(Cl)cc3Cl)nn2-c2ccccc2)o1 [Example 62] was 6.76
